Square brackets hold non-standard residues; d marks the D form. Peptide text beside a SMILES is read from it. NMeY = CN[C@@H](Cc1ccc(O)cc1)C(=O)O; NMeF = CN[C@@H](Cc1ccccc1)C(=O)O
Entries with their measured log10(IC50), system Mu-type opioid receptor (Cavia porcellus, UniProt P97266):
Readout Label: log10(IC50) (log10 of the value in nM)

INSERT INTO assay_data (compound, readout_label, result_number) VALUES
  ('CN[C@@H](Cc1ccc(O)cc1)C(=O)N[C@@H](C)C(=O)NCC(=O)N[C@@H](Cc1ccccc1)C(=O)N[C@@H](CC(C)C)C(=O)N[C@@H](CCCNC(=N)N)C(=O)N[C@@H](CCCNC(=N)N)C(=O)N[C@@H](CC(C)C)C(N)=O (H-[NMeY]AGFLRRL-NH2)', 'log10(IC50)', 1.14),
  ('CCNC(=O)[C@@H](CC(C)C)NC(=O)[C@H](CCCN=C(N)N)N(C)C(=O)[C@H](CCCN=C(N)N)NC(=O)[C@@H]1CSSC[C@@H](NC(=O)[C@@H](N)Cc2ccc(O)cc2)C(=O)NCC(=O)N[C@@H](Cc2ccccc2)C(=O)N1', 'log10(IC50)', -2.15),
  ('CC(C)C[C@H](NC(=O)[C@H](CCCN=C(N)N)NC(=O)[C@H](CCCN=C(N)N)NC(=O)[C@H](CC(C)C)NC(=O)[C@H](Cc1ccccc1)NC(=O)CNC(=O)[C@H](C)NC(=O)[C@@H](N)Cc1ccc(O)cc1)C(N)=O (H-YAGFLRRL-NH2)', 'log10(IC50)', 0.84),
  ('CN[C@@H](Cc1ccc(O)cc1)C(=O)NCC(=O)NCC(=O)N(C)[C@@H](Cc1ccccc1)C(=O)N[C@@H](CC(C)C)C(=O)N[C@@H](CCCNC(=N)N)C(=O)N[C@@H](CCCNC(=N)N)C(=O)N[C@@H](CC(C)C)C(N)=O (H-[NMeY]GG[NMeF]LRRL-NH2)', 'log10(IC50)', 1.43),
  ('CN[C@@H](Cc1ccc(O)cc1)C(=O)NCC(=O)NCC(=O)N[C@H](Cc1ccccc1)C(=O)N[C@H](CC(C)C)C(=O)N[C@@H](CCCNC(=N)N)C(=O)N[C@@H](CCCNC(=N)N)C(=O)N[C@@H](CC(C)C)C(N)=O', 'log10(IC50)', 1.91),
  ('CN[C@@H](Cc1ccc(O)cc1)C(=O)NCC(=O)NCC(=O)N[C@@H](Cc1ccccc1)C(=O)N[C@@H](CC(C)C)C(=O)N(C)[C@@H](CCCN=C(N)N)C(=O)N[C@@H](CCCN=C(N)N)C(=O)N[C@H](CC(C)C)C(N)=O', 'log10(IC50)', 1.31);

Provenance of the data: ChEMBL document CHEMBL1124934
